assay summary: MTT cytotoxicity assay
property label: CC50 (µM)
The reply should contain only the number, in µM.

Memo: "COc1ccc2c3c([nH]c2c1)[C@H](CC(C)C)N1C(=O)[C@H](CCCCNC(=O)C(C)(C)C)N(C(=O)C(C)(C)C)C(=O)[C@@H]1C3" , reported CC50: 39.6

====

target system: ABCG2 (Homo sapiens, UniProt Q9UNQ0)
Construct: developed using the A549 cancer cell line; endogenous in cells
Sequence (Q9UNQ0 whole entry): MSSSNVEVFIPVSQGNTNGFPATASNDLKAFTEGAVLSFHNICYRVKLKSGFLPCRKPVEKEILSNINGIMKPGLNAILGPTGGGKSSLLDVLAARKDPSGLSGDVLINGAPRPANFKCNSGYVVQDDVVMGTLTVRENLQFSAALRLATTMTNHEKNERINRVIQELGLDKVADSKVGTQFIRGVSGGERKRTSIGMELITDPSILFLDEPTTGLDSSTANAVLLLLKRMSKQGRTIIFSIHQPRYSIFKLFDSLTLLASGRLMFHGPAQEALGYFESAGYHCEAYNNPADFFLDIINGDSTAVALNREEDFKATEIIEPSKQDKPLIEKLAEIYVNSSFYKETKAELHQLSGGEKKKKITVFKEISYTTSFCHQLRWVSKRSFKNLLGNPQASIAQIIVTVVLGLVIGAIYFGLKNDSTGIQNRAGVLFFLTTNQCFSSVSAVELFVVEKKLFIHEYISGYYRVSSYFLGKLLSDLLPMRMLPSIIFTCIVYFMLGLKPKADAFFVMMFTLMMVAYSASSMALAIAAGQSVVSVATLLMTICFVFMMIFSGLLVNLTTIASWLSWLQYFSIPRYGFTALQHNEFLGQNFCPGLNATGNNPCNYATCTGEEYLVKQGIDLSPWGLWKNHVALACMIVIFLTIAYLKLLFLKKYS
assay summary: Protoporphyrin IX (PPIX)-based ABCG2 inhibition assay using the A549 cancer cell line
measurement parameters: read-out: IC50, the half maximal inhibitory concentration
Answer each item with its documented IC50.
The reply should contain only the number, in nM.

Memo: "COc1ccc2c3c([nH]c2c1)[C@H](CC(C)C)N1C(=O)[C@H](CCCOC(C)(C)C)NC(=O)[C@@H]1C3" , reported IC50: 90

Memo: "COc1ccc2c3c([nH]c2c1)[C@H](CC(C)C)N1C(=O)[C@H](CC(=O)N2CCCCC2)NC(=O)[C@@H]1C3" , reported IC50: 3140

Memo: "COc1ccc2c3c([nH]c2c1)[C@H](CC(C)C)N1C(=O)[C@H](CC(=O)NC(C)C)NC(=O)[C@@H]1C3" , reported IC50: 270

Memo: "COc1ccc2c3c([nH]c2c1)[C@H](CC(C)C)N1C(=O)[C@H](CC(=O)NC(C)(C)C)NC(=O)[C@@H]1C3" , reported IC50: 180

Memo: "COc1ccc2c3c([nH]c2c1)[C@H](CC(C)C)N1C(=O)[C@H](CC(=O)NCc2ccccc2)NC(=O)[C@@H]1C3" , reported IC50: 250

Memo: "COc1ccc2c3c([nH]c2c1)[C@H](CC(C)C)N1C(=O)[C@H](CC(=O)NC2CCCCC2)NC(=O)[C@@H]1C3" , reported IC50: 130
